Test system: DeltatarO mutant
Experiment: S. aureus survival, RN4220 and DeltatarO strains – OD600, teichoic acid synthesis inhibitors, primary screen (AID 463173)
Conditions: S. aureus RN4220 wild type/DeltatarO growth, OD600, 18 h, screened at 18.75 µg/mL (by protocol)
Screen size: about 52,000 compounds; about 4,300 (8.3%) were called active. Cut-off read from the data, not from the text of the source: active = survival mostly below about 52% (no sharp cut-off); inactive = mostly above about 56%. The sample as a whole holds a higher share of actives than the screen did.
Possible outcomes: yes for active, no for inactive

>>> df
                                    compound  classification
 0  COC(=O)c1ccc([C@@H]2Nc3c(cccc3C(F)(F)F)[C@@H]3C=CC[C@@H]32)cc1             yes
 1  COc1ccccc1-c1nnc(SCC(=O)c2ccc(F)cc2)n1-c1ccccc1             yes
 2  CCOc1ccc(NC(=O)CCc2c(C)nc3nc(-c4cc(OC)cc(OC)c4)nn3c2C)cc1              no
 3  Cc1ccc(CNC(=O)CN2C(=O)CSc3c2c(C)nn3-c2ccccc2)cc1              no
 4  Cn1cc(S(=O)(=O)c2ccccc2)c(=O)c2cc(F)c(N3CCCC3)cc21              no
 5  Cn1ccc2cc(S(=O)(=O)N3CCC(C(=O)NCCc4ccccc4)CC3)ccc21              no
 6        Cc1cccc(OCC(=O)Nc2cccc3cccnc23)c1C             yes
 7  O=C(CN1C(=O)C(c2ccc(F)cc2)=NC12CCCCCC2)Nc1ccccc1Cl              no
 8  COc1cc(NC(=O)CCc2c(C)nn(-c3ccc(N4CCCCC4)nn3)c2C)cc(OC)c1OC              no
 9  COc1ccc(CCNC(=O)c2cc(-c3ccc(Cl)cc3)on2)cc1OC              no
10  CSc1nc(NNC(=O)c2ccco2)c2c3c(sc2n1)COC(C)(C)C3              no
11  COC(=O)CN1C(=O)C(C)(C)c2cc(S(=O)(=O)Nc3ccc(Br)cc3F)ccc21              no
12  O=C(CSc1nnc(-c2ccc(Cl)cc2)o1)Nc1ccc(F)cc1              no
13  COc1cccc(NC(=O)CSc2nnc(NC(=O)NC3CCCCC3)s2)c1              no
14  Cc1cc(NC(=O)CCc2nc3cccnc3n2Cc2cccs2)ccc1Br              no
15  O=C(CCNS(=O)(=O)c1ccc2c(c1)CCCC(=O)N2)NCc1ccccc1Cl              no
16   Cn1c(SCC(=O)c2ccc(F)cc2)nnc1-c1ccccc1Br              no
17  Cc1ccc(C(=O)CSc2nnc(-c3ccccc3)n2-c2ccccc2)cc1              no
18  CCOc1ccc(-c2nnc(SCC(=O)c3ccc(F)cc3)n2-c2ccccc2)cc1              no
19  O=C(/C=C\c1ccc2c(c1)OCO2)NC1CC(=O)N(c2ccccc2)C1 (configuration not stated)              no
20  Cc1cccc(NC(=O)CN2C(=O)C(c3ccc(F)cc3)=NC23CCCCCC3)c1              no
21  CCOc1ccc(OCC(=O)Nc2c(C(=O)Nc3ccc(C)cc3)oc3ccccc23)cc1              no
22  CCn1c(SCC(=O)c2ccc([N+](=O)[O-])cc2)nnc1-c1ccc(Cl)cc1              no
23  O=C(Nc1ccccc1C(=O)N1CCOCC1)C1COc2ccccc2O1 (configuration not stated)              no
24  Fc1ccc(-n2ncc3c(Nc4ccc5c(c4)OCCO5)ncnc32)cc1              no
25  Cc1n[nH]c(=S)n1CC(=O)n1c2c(c3ccccc31)CCCC2              no
26  COc1ccc(N2CCN(C(=O)COCc3cc(-c4ccc5c(c4)OCO5)on3)CC2)cc1              no
27  COc1ccccc1-c1nnc(SCC(=O)OC(C)C)n1-c1ccccc1              no
28        CCn1c(SCC(=O)c2ccccc2)nnc1-c1ccco1              no
29  COc1cccc(CNC(=O)CN(c2ccc(C)cc2)S(=O)(=O)N(C)C)c1OC              no
30   CCn1c(SCC(=O)c2ccccc2)nnc1-c1cccc(Cl)c1             yes
31  Cc1ccc(-c2nnc(SCC(=O)c3ccc(Cl)cc3)n2-c2ccccc2)cc1              no
32           CN(Cc1ccccc1)Cn1[nH]c(=O)ccc1=O              no
33  COc1ccccc1NC(=O)CSC1=Nc2ccccc2C2=NC(CC(=O)NCCc3ccccc3)C(=O)N12 (configuration not stated)              no
34  CCOc1cc(C(=O)Nc2cccc3cccnc23)cc(OCC)c1OCC             yes
35  CCOc1cccc2c1N[C@@H](c1ccc(C(=O)O)cc1)[C@H]1CC=C[C@@H]21              no
36  O=C(NCc1ccc(Cl)cc1)c1cc2ccc3cccnc3c2[nH]1              no
37         Cc1ccc(C(=O)Nc2cccc3cccnc23)cc1Cl              no
38  O=C(Nc1ccc(N2CCC(c3ccccc3)C2)c(C(=O)O)c1)c1ccc(Cl)cc1 (configuration not stated)              no
39  COc1ccccc1-c1nnc(SCC(=O)c2ccc(Cl)cc2)n1-c1ccccc1             yes
40  Nc1c(-c2nc(-c3ccc(Cl)cc3)cs2)c2ccccn2c1C(=O)c1ccc2c(c1)OCO2              no
41            Cc1ccc(C(=O)Nc2onc3c2CCCC3)cc1             yes
